Task for the reader: assign each of the following substances its reported pEC50.
Target: hGcgR (Homo sapiens, UniProt P47871)
Sequence (P47871 26-477): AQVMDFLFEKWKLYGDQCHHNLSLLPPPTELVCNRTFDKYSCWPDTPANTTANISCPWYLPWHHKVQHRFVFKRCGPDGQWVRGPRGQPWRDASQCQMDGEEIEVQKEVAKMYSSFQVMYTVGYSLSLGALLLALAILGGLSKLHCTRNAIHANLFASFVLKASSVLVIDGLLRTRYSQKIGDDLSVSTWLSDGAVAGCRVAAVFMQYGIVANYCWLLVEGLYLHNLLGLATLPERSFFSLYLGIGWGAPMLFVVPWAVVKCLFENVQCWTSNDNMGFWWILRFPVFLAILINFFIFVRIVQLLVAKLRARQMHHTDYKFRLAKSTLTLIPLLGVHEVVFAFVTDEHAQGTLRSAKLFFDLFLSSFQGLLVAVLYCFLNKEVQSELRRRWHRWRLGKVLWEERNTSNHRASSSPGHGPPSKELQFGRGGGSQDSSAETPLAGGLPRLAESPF
Test: Functional cAMP activation in the presence of 0.1% casein (no HSA);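 further: intracellular cAMP rise after 30 min at 37 °C, read by HTRF against a cAMP standard curve, scaled from buffer only (0%) to maximal control ligand response (100%)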
Type: cell-based
Settings: in the presence of 0.1% casein (no HSA); geometric mean; read-out: Relative cAMP EC50, hGcgR
Starred links: 1 amine or outer side, 2 acyl side, 3 side chain; linkers in the order of their positions; H or OH if unused. Non-standard residues stand in square brackets, D forms with d. Groups on a side chain read outwards from the residue. No end group written: not given here. *: point of attachment. C20 diacid = O=C(O)CCCCCCCCCCCCCCCCCCC(=O)*; C18 diacid = O=C(O)CCCCCCCCCCCCCCCCC(=O)*; Phe(4-CN) = N#Cc1ccc(C[C@H](N)C(=O)O)cc1; αMePhe(2-F) = C[C@](N)(Cc1ccccc1F)C(=O)O; γGlu = O=C(O)[C@H](CCC(=O)[*:2])N[*:1]; αMe4Pal = C[C@](N)(Cc1ccncc1)C(=O)O; αMeY = C[C@](N)(Cc1ccc(O)cc1)C(=O)O; 4Pal = N[C@@H](Cc1ccncc1)C(=O)O; αMeL = CC(C)C[C@](C)(N)C(=O)O; αMeS = C[C@](N)(CO)C(=O)O; Orn = NCCC[C@H](N)C(=O)O; AEEA = NCCOCCOCC(=O)O; Aib = CC(C)(N)C(=O)O
Answers are plain numbers, as −log10 of the molar value.

Check out these entries, answers already filled in.
{"columns": ["SUBSTANCE", "pEC50"],
 "data": [
  ["H-Y[Aib]QGTFTSD[Phe(4-CN)]S[Orn][αMeL]LDKK([AEEA-γGlu-C18 diacid])AQ[Aib]AFIEYLLE[Aib]GHSSGAPPPSGS-NH2 [Example 190]", 8.53],
  ["H-Y[Aib]QGTFTSD[4Pal]S[Orn][αMeL]LD[Orn]K([γGlu-γGlu-C18 diacid])AQ[αMe4Pal][Orn]FIE[αMeY]LLAGGPSSGAPPPSGSEE-NH2 [Example 997]", 8.30],
  ["H-Y[Aib]QGTFTSDFS[Orn][αMeL]LDKK([AEEA-γGlu-C18 diacid])AQ[Aib]AFIEYLLE[dA]GPSSGAPPPSGS-NH2 [Example 209]", 8.51],
  ["H-Y[Aib]QGTFTSD[4Pal]SR[αMeL]LDKK([AEEA-γGlu-C18 diacid])AQ[αMe4Pal]AFIE[αMe4Pal]LIEGGPSSGAPPPSGSEE-NH2 [Example 956]", 8.66],
  ["Y[Aib]QGTFTSD[4Pal]SQ[αMeL]LDKK([AEEA-γGlu-C18 diacid])AQ[Aib]AFIEYLLE[dA]GPSSGAPPPSG[4Pal]-NH2 [Example 822]", 7.94],
  ["H-Y[Aib]QGTFTSD[4Pal]SQ[αMeL]LDKK([AEEA-AEEA-γGlu-C18 diacid])AQ[αMe4Pal]AFIEYLIE[Aib]GPSSGAPPPSGS-NH2 [Example 816]", 8.18],
  ["H-Y[Aib]QGT[αMePhe(2-F)]TSD[4Pal][αMeS]I[αMeL]LD[Orn]K([AEEA-γGlu-C18 diacid])AQ[αMe4Pal]EFI[dE][αMeY]LVEGGPSSGAPPPEGE-NH2 [Example 1158]", 8.66],
  ["H-Y[Aib]QGTFTSD[4Pal]S[Orn][αMeL]LDKK([AEEA-γGlu-γGlu-C18 diacid])AQ[αMe4Pal]AFIEYLIE[Aib]GPSSGAPPPSGS-NH2 [Example 867]", 8.61],
  ["H-Y[Aib]QGTFTSDFS[Orn][αMeL]LDKK([AEEA-γGlu-C18 diacid])AQ[Aib]AFIEWLLEGGESSGEPPPSGE-NH2 [Example 123]", 8.34],
  ["Y[Aib]QGTFTSD[4Pal]SR[αMeL]LDKK([AEEA-γGlu-C18 diacid])AQ[αMe4Pal]AFIE[αMeY]LIEGGPSSGAPPPSGS-NH2 [Example 843]", 8.47]
]}

// next entry
Lookup: Which value of pEC50 has been reported for H-Y[Aib]QGTFTSDYSK[αMeL]LDKK([AEEA-γGlu-C20 diacid])AQ[Aib]AFVQWLLEGGPSSGEPPPSEG-NH2 [Example 343] in the records?
Found: 8.17

Value source: patent US20240270821A1
